This collection of values is drawn from paper PMC11894060.

target: PLK1 (Homo sapiens, UniProt P53350); test: PLK1 kinase ADP-Glo assay (in vitro kinase activity); format: biochemical; parameters: 2 μl of PLK1 enzyme (15 ng/well); settings: ADP-Glo assay; read-out: IC50 against PLK1 (bound stated in text)
Sequence (P53350 whole entry): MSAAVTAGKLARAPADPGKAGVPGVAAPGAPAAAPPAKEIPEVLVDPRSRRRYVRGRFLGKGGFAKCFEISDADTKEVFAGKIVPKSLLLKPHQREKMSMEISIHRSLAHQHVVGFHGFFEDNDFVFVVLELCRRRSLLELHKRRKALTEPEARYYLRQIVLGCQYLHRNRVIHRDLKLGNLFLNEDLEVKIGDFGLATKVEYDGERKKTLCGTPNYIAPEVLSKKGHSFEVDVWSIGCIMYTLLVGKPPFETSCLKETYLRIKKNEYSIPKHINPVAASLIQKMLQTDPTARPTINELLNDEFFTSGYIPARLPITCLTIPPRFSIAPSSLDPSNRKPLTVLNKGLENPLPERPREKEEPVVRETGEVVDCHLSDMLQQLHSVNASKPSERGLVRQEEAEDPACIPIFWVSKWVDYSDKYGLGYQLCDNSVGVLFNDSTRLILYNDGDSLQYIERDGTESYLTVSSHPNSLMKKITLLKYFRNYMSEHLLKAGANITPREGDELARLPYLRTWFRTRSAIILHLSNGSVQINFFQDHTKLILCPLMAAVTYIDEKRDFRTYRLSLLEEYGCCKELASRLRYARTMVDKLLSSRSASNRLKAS
measurementKind: IC50

Completed entries (count: 2):
>>> assayvalue("COc1ccc(N2CCN(C)CC2)cc1Nc1ncc(C)c(Oc2cccc3cc(C(N)=O)sc23)n1")
"< 1 µM"
>>> assayvalue("COc1ccc(N2CCN(C)CC2)cc1Nc1ncc(C)c(Oc2ccccc2-n2ccnn2)n1")
"< 1 µM"

Continue with the next molecule.
# IC50 (molecule: COc1ccc(N2CCN(C)CC2)cc1Nc1ncc(C(F)(F)F)c(Oc2cccc3[nH]c(C(N)=O)cc23)n1 ) is < 1 µM

---

target: PLK3 (Homo sapiens, UniProt Q9H4B4)
Sequence (Q9H4B4 whole entry): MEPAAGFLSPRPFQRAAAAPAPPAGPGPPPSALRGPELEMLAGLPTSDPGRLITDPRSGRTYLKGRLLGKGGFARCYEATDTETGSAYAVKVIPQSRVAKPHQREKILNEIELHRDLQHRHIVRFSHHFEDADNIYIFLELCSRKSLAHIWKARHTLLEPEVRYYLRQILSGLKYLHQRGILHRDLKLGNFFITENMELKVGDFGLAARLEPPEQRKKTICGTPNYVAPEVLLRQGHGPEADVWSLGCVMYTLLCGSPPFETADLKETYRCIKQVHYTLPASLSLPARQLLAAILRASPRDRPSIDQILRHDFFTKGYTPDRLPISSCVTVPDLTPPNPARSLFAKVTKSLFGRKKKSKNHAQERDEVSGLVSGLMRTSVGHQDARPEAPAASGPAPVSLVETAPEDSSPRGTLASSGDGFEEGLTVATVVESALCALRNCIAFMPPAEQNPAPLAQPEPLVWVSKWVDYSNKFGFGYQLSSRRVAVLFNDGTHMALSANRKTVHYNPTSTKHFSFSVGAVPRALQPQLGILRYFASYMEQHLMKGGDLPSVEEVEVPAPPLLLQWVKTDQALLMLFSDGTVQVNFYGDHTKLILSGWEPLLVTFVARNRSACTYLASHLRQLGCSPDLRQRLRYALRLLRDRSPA
measurementKind: IC50

The compound COc1ccc(N2CCN(C)CC2)cc1Nc1ncc(C(F)(F)F)c(Oc2cccc3[nH]c(C(N)=O)cc23)n1 on PLK3 (Homo sapiens, UniProt Q9H4B4): IC50 was > 1000 nM

---

target: PLK2 (Homo sapiens, UniProt Q9NYY3)
Sequence (Q9NYY3 whole entry): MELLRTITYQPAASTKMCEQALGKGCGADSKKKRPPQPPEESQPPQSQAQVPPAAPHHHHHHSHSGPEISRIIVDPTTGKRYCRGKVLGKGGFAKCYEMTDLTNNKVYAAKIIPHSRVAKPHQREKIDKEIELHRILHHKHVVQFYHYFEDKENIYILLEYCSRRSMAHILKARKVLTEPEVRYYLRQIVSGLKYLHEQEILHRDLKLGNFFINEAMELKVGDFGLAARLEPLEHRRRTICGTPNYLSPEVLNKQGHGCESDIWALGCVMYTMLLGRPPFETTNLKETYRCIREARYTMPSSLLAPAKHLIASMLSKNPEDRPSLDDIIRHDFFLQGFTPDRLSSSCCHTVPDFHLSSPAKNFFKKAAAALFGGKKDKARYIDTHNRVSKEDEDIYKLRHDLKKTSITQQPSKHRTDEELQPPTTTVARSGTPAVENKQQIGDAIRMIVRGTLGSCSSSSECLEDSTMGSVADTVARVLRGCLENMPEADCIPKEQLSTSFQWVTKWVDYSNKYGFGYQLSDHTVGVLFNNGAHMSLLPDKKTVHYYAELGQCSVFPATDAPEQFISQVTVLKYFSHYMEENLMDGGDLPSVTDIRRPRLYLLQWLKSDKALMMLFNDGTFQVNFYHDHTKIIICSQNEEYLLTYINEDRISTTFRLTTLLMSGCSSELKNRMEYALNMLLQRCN
pIC50: −log10 of the molar value.
measurementKind: pIC50

Record COc1ccc(N2CCN(C)CC2)cc1Nc1ncc(C)c(Oc2cccc3cc(C(N)=O)sc23)n1 , field pIC50: < 6.00

---

System: HCT116 cell line
Assay: CellTiter-Glo cell viability assay on HCT116
Type: cell-based, human
Conditions: Homo sapiens, HCT-116; CellTiter-Glo; mean ± standard deviation, n = 3 replicates; read-out: IC50 of cell proliferation inhibition, HCT116
Method: Cell viability assays were conducted through CellTiter-Glo assay services provided by Conradbio (Conradbio, China). The protocol is briefly described as follows. Firstly, when the cell confluence reaches 80%, cells are collected and counted. […] This assay is designed to measure cell viability based on luminescence, providing insights into the impact of the compounds on cellular health. […]
measurementKind: IC50 (nM)
Just the number please, in nM, no unit attached.

For reference, reported IC50 for COc1ccc(N2CCN(C)CC2)cc1Nc1ncc(C)c(Oc2cccc3cc(C(N)=O)sc23)n1 [IIP0943] stands at 220

---

Target: PLK1 (Homo sapiens, UniProt P53350)
Assay: PLK1 kinase ADP-Glo assay (in vitro kinase activity)
Format: biochemical
Set-up: 2 μl of PLK1 enzyme (15 ng/well)
Conditions: IC50 with 90% confidence interval; read-out: 90% CI of IC50 against PLK1
Protocol: In vitro kinase activity assays were conducted through ADP-Glo assay services provided by Conradbio (Conradbio, China). The protocol for the PLK1 assay is described as follows (protocols for other kinases are very similar). Enzyme, substrate, ATP, and compounds were diluted in a Kinase Buffer composed of 40 mM Tris (pH 7.5), 20 mM MgCl2, 0.1 mg/ml BSA, and 50 μM DTT. […] Luminescence was recorded with an integration time of 0.5 s. […]
pIC50: −log10 of the molar value.
measurementKind: pIC50

a = COc1ccc(N2CCN(C)CC2)cc1Nc1ncc(C)c(Oc2cccc3cc(C(N)=O)sc23)n1
b = COc1ccc(N2CCN(C)CC2)cc1Nc1ncc(C)c(Oc2ccccc2-n2ccnn2)n1
c = COc1ccc(N2CCN(C)CC2)cc1Nc1ncc(C(F)(F)F)c(Oc2cccc3[nH]c(C(N)=O)cc23)n1
Ask | # descending pIC50 order for the listed compounds Answer format: list of labels, ordered as asked.
Reply | a, c, b

---

target: PLK1 (Homo sapiens, UniProt P53350); assay: PLK1 kinase ADP-Glo assay (in vitro kinase activity); assay type: biochemical; design: 2 μl of PLK1 enzyme (15 ng/well); conditions: ADP-Glo assay; mean ± standard deviation, n = 3 replicates; read-out: IC50 against PLK1
pIC50: −log10 of the molar value.
measurementKind: pIC50

P = COc1ccc(N2CCN(C)CC2)cc1Nc1ncc(C)c(Oc2ccccc2-n2ccnn2)n1 [IIP0945]
Q = COc1ccc(N2CCN(C)CC2)cc1Nc1ncc(C)c(Oc2cccc3cc(C(N)=O)sc23)n1 [IIP0943]
R = COc1ccc(N2CCN(C)CC2)cc1Nc1ncc(C(F)(F)F)c(Oc2cccc3[nH]c(C(N)=O)cc23)n1 [IIP0942]
Ask | # sort list by recorded pIC50, greatest to least Answer format: the labels, ordered as requested.
Reply | Q, R, P
